Assign Percent Effect to each entry below.
- target: Proteasome subunit beta (Trypanosoma cruzi)
- Sequence (whole entry): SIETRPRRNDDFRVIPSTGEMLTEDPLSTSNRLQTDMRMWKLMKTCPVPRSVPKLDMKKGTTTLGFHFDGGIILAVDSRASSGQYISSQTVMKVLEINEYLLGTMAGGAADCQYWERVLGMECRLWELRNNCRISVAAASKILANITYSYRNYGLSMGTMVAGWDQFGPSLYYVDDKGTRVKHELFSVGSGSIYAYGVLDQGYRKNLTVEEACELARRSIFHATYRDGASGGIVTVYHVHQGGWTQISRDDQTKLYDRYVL
- assay_comment: Trypanosoma cruzi proteasome chymotrypsin-like activity (TcProtChymo) assay. Note: in the data most compounds retested in dose-response had high values.
- Type: functional
- Design: scale not given: direction of the effect not stated beside the values
- stated_conditions: 9.37 µM
Hi! Could you send only the number? It should be in %, unit omitted.

Q) Could you please provide reported Percent Effect for Cn1cc(C(=O)N2CCC(Cc3nccs3)CC2)cn1 ? Thanks!
A) 6.73

Q) Input O=C1CO[C@@H]2CN(Cc3cccs3)C[C@H]2N1CC1CC1 , output reported Percent Effect.
A) 13.9

Q) Note Percent Effect for the compound shown: Cc1cncc(C2CCCN(C(=O)c3cccn3C)C2)n1 (stereo unspecified)
A) 13.3

Q) Give the value of Percent Effect reported for the following: Cc1n[nH]c(=O)c2c(NC(=O)CN3CCOC(C)C3)oc(C)c12 (stereo unspecified)
A) 16.6

Q) Please give the documented Percent Effect of Cc1ccc(NC2CCN(C(=O)c3cccc4ncccc34)CC2)nn1
A) -1.61

Q) Return the recorded Percent Effect value; entry: Cc1ncc(-c2ccnc(N3CCCCC3)n2)c(=O)[nH]1
A) 9.07

Q) Indicate the recorded Percent Effect value for this compound: Cc1cncc(C2CCCN(Cc3cccn3C)C2)n1 (stereo unspecified)
A) 10.5

Q) Look up and report measured Percent Effect for this entry: Cc1ccc(-c2cc(CN3CCOC(Cn4cncn4)C3)on2)cc1 (stereo unspecified)
A) 1.4

Q) Supply reported Percent Effect belonging to this compound: CC(=O)NCCC(=O)NCc1cccnc1-n1cnc2ccccc21
A) 1.71

Q) Specify reported Percent Effect for the compound shown: COC(=O)CC(c1ccccc1)c1oc(C)cc(=O)c1O (stereo unspecified)
A) 1.71

Q) Supply Percent Effect value. Item: Cc1cc(C)n(CC2CN(Cc3nc(-c4ccco4)no3)CCO2)n1 (stereo unspecified)
A) 8.25

Q) Give the value of Percent Effect reported for the following: O=C(c1cnco1)N1CCCC(Cc2nccs2)C1 (stereo unspecified)
A) 19.1

Q) Give the reported value of Percent Effect for this record: COC1CCCN(Cc2nc(Cc3ccccc3F)no2)C1 (stereo unspecified)
A) 1.71

Q) # return recorded Percent Effect for entry CC(C)(C)n1ncc2c1NC(=O)CC2c1ccc(OCC(N)=O)cc1 (stereo unspecified)
A) 11.8

Q) Quickly give me recorded Percent Effect for Cc1noc(C)c1CN1CCN(Cc2nccn2C)CC1
A) 13.7

Q) Using known records, supply Percent Effect for CCc1ncc2c(n1)CN(CC(=O)Nc1ccc(Cl)cn1)CC2
A) 4.83

Q) Report Percent Effect for O=C(c1cc(Cl)c2c(c1)OCCO2)N1CCCC(n2cncn2)C1 (stereo unspecified)
A) 1.78

Q) Given the compound Cn1cc(NC(=O)N2CCC(CN3CCCC3)CC2)ccc1=O , write its reported Percent Effect.
A) 1.79

Q) Please supply the value of reported Percent Effect for the item COc1ncccc1CNC(=O)c1cccnc1O
A) 8.79

Q) Fill in reported Percent Effect for this entry: CC(C)Oc1ncccc1CNC(=O)c1ccco1
A) 13.5

Q) Respond only with Percent Effect recorded for CC(=O)N1[C@@H](C(=O)NCC2CC2)C[C@@H]2CN(Cc3ccco3)C[C@@H]21
A) 12.1

* * *

- target: Proteasome subunit beta (Trypanosoma cruzi)
- assay_comment: Trypanosoma cruzi proteasome chymotrypsin-like activity (TcProtChymo) assay. Note: in the data most compounds retested in dose-response had high values.
- Format: functional
- Set-up: scale not given: direction of the effect not stated beside the values
- stated_conditions: 9.37 µM
One threshold, 6%, splits the recorded Percent Effect values: lower ones are Condition met, equal or higher ones are Condition not met.

Q) Lab note: confirm whether the reported Percent Effect for this molecule is below 6%, equality not counting. molecule: O=C(CSC1CCc2ccccc2NC1=O)NCCc1ccco1 (stereo unspecified)
A) Condition not met

Q) Determine whether this molecule shows Percent Effect lower than 6% (ties excluded): Cc1cc(CN(C)C(=O)c2ccc(C(F)(F)F)nc2)no1
A) Condition met

Q) Given the entry O=C(c1ccc(OCC2CC2)nc1)N1CCCC(n2cncn2)C1 (stereo unspecified) , would its reported Percent Effect be below 6%?
A) Condition not met

Q) API: query returns whether the molecule falls strictly under 6% in Percent Effect. Query: Cc1ccc(-c2nc(CNCC3CN(C)CCO3)cs2)o1 (stereo unspecified)
A) Condition not met

Q) Identify whether the molecule CCS(=O)(=O)c1ncc(CN(C)Cc2ccccn2)n1CCOC records Percent Effect below 6%.
A) Condition met

Q) Problem: For the molecule Cc1cc(CN(C)C(=O)c2ccnc(N(C)C)c2)no1 , is Percent Effect under 6%?
A) Condition met

* * *

- target: AMP-activated protein kinase, AMPK (Homo sapiens) (UniProt P54646+O43741+P54619+Q9UGJ0+Q9Y478+Q13131+Q9UGI9)
- assay_comment: AMP-dependent Kinase enzyme assay. An in vitro enzyme assay that detects ADP turnover that is directly proportional to AMPK activity. This uses naive AMPK that is activated during the assay with MK-8722
- Type: functional
- Parameters: scale not given: direction of the effect not stated beside the values
- stated_conditions: 30 µM
outcome_measure: Percent Effect (%)
Numeric only. Scale: %

Q) Supply recorded Percent Effect for Cc1ccc(S(=O)(=O)N(CCO)C2CC2)cc1N(C)C here.
A) -7.34

Q) Given Cc1nonc1CNC(=O)C(C)Oc1ccccc1F (stereo not given) , respond with its Percent Effect.
A) 5.55

Q) # return recorded Percent Effect for input Cc1nc2sccn2c1CN(CCCN(C)C)Cc1ccccn1
A) 3.1

Q) Identify the reported Percent Effect for the following entry. Cc1noc(CS(=O)(=O)c2cc(F)ccc2F)n1
A) -0.296

Q) Write down Percent Effect measured for item COC(=O)CC1CSCCN1C(=O)CCc1c(C)nn(C)c1C (stereo not given)
A) 5.71

Q) Quickly give me recorded Percent Effect for Cc1nn(C)c(C)c1-c1ccc(=O)n(C(C)C(=O)NC2CC2)n1 (stereo not given)
A) 9.59

Q) Provide only the value of recorded Percent Effect for Cc1ncc(CC(=O)N2CCCCC2CCN2CCCC2)c(=O)[nH]1 (stereo not given)
A) 0.508

Q) State, in one line, measured Percent Effect of O=C(NCC[S+]([O-])Cc1ccccc1)c1ccc2[nH]c(=O)[nH]c2c1 (stereo not given)
A) 13.6

Q) Note Percent Effect for the compound shown: COc1ccc(CC(C)Nc2cccc(SC)c2)cc1 (stereo not given)
A) -5.64

Q) Item CN(C(=O)C1CCN(Cc2cnc3ccccn23)CC1)c1ccccc1 : provide Percent Effect
A) -0.957

Q) Give the reported Percent Effect for this compound. CCc1noc(C(C)Sc2nnc(C3CC3)n2CC(N)=O)n1 (stereo not given)
A) -8.4

Q) Kindly indicate its recorded Percent Effect. Item: CC(C(=O)NC1(C#N)CCCCC1)N1CCc2c(ncn2C2CC2)C1 (stereo not given)
A) -1.93

Q) Entry CC(C)[C@@H]1CN(c2ccc(F)cn2)C[C@H]1NS(C)(=O)=O needs its Percent Effect filled in; supply it.
A) -3.59

Q) Indicate the recorded Percent Effect value for this compound: Cc1cc2n(n1)CC(CNCc1cc(C)on1)CN2 (stereo not given)
A) -6.26

Q) Note Percent Effect for the compound shown: CN(C)c1cccc(C(=O)Nc2ccn(CCc3ccncc3)n2)c1
A) 12.1

Q) Give me measured Percent Effect, please, for this compound: Cc1cc(C(F)(F)F)nc(CNC(=O)CCn2cccn2)n1
A) 12.2

Q) Provide measured Percent Effect value, entry: CCSc1cc(C(=O)NC(C)c2cccc(N3CCOC3=O)c2)ccn1 (stereo not given)
A) 7.17

Q) Let me know recorded Percent Effect for Cc1noc(C)c1CNCC1CNc2ccnn2C1 (stereo not given) , thanks.
A) -0.962

Q) Look up and state reported Percent Effect for Cn1cc(N2CCN(c3ccc(C#N)cc3F)CC2=O)cn1
A) 0.0438

Q) Provide measured Percent Effect value, entry: Cc1noc(C2CCCN(Cn3cc(Cl)cn3)C2)n1 (stereo not given)
A) 10.4

Q) Tell us which Percent Effect value is on record for Cc1nc(C)n(CC2CCCN2c2ncnc3sccc23)n1 (stereo not given)
A) 1.91

Q) Give the reported value of Percent Effect for this record: CC(C)(C)NC(=O)c1cnc2n1CCCC2
A) 0.336

Q) # return recorded Percent Effect for entry CCCN(CCO)S(=O)(=O)c1ccc2[nH]c(=O)[nH]c2c1
A) -3.64

Q) Complete the entry with Percent Effect for COc1c(C2CCCN2CC(=O)N(C)Cc2ccco2)c(C)nn1C (stereo not given)
A) 1.41

Q) Hello, please tell me recorded Percent Effect for this one: Fc1ccc(C2(CNCCc3cccs3)CCOC2)cc1 (stereo not given)
A) -3.1

Q) Give the reported Percent Effect for this compound. NCc1cccc(NC(=O)CCN2CCOCC2)c1
A) -8.1

Q) Write down Percent Effect measured for item Cn1ccnc1C1(O)CCN(C(=O)Cc2ccccc2)CC1
A) 13.3

Q) Give reported Percent Effect value for CCn1cnnc1CNC(=O)N1CCOC(c2ccc(F)cc2)C1 (stereo not given)
A) -5.45

Q) Input Cc1nc2c(c(NC(C)c3nnn[nH]3)n1)Cc1ccccc1OC2 (stereo not given) , output reported Percent Effect.
A) -6.31

Q) Item CCc1cnc(C(C)NC(=O)N2CCCN(CC(F)F)CC2)s1 (stereo not given) : provide Percent Effect
A) -2.53

Q) Provide only the value of recorded Percent Effect for CCc1cc(CNC(=O)c2cc(NC(=O)C(C)C)ccc2Cl)[nH]n1
A) 0.911

Q) Name the recorded Percent Effect of the compound listed here: CC1(C)CC(CN2CCC3(CCC(=O)N(CCO)C3)CC2)CCO1 (stereo not given)
A) -1.98

Q) Return reported Percent Effect. Input compound: Cc1cc(NCCc2cnccn2)nc(-c2ccccc2O)n1
A) 19.4

Q) Look up and state reported Percent Effect for Cc1noc(C)c1C(=O)N(C)C(C)c1cccnc1 (stereo not given)
A) -4.48

Q) Identify measured Percent Effect corresponding to O=C(CC1COCCN1)N1CCCN(C2Cc3ccccc3C2)CC1 (stereo not given)
A) -11.6

Taken from ChEMBL document CHEMBL3988442.
